From: PubChem BioAssay (NCI)

# Test system: HCT-15 colon
# ASSAY SUMMARY: NCI-60 one-dose screen, 48 h
# CONDITIONS USED: 10 µM unless noted
About 83,000 compounds went through this panel and 20% of them were active in at least one assay; those are over-represented in the sample as a whole. Activity calls are given as the source filed them. How the source made its calls: active means growth percent below 10; inactive means the rest.
Labels: Yes = active, No = inactive

1. CCN1C(=O)N(CC)C2Nn3c(s/c(=C4\C(=O)N(C(C)C)c5ccccc54)c3=O)=NC21 (stereo unspecified)    No
2. O=c1oc2ccc(Br)cc2c(=O)n1-c1ccc(I)cc1F    Yes
3. COc1ccc(Cn2c(Br)c3c(c2-c2cc(OC)c(OC)c(OC)c2)CCc2sc(NC(=O)c4ccc(OC)cc4)nc2-3)cc1    No
4. O=C(NN1C(=O)CSC1c1ccc(Cl)cc1)c1[nH]c2ccc(F)cc2c1-c1ccccc1 (stereo unspecified)    No
5. O=C(Nc1ccc(F)cc1F)c1cc(I)ccc1O    No
6. Nc1nc(Nc2cccc(F)c2)nc2ccccc12    No
7. CC1CCCCN1CCCNC(=O)c1ccc2c(c1)sc1nc(-c3ccc(F)cc3)cn12 (stereo unspecified)    No
8. O=c1c2cc(F)cc(Cl)c2sc2c(Cl)nc3ccccc3c12    No
9. O=S1(=O)N(Cc2ccccc2)[C@@H](Cc2ccccc2)[C@H](O)[C@H](O)[C@H](Cc2ccccc2)N1Cc1ccccc1    Yes
10. O=Cc1c(OCc2cnnn2CC(=O)Nc2ccc(Br)cc2)ccc2ccccc12    No
11. CCC(C)(C)C(=O)O[C@H]1C[C@@H](C)C=C2C=C[C@H](C)[C@H](CC[C@@H]3CC=CC(=O)O3)[C@H]21    No
12. CC1=C(CC(=O)c2cccc([N+](=O)[O-])c2)C(=O)c2ccccc2C1=O    No
13. CC/C(=C(\CC)c1ccc(OCC[N+](C)(C)C)cc1)c1ccc(OC)cc1    No
14. O=C(CCc1nnc2sc(Cc3ccccc3Cl)nn12)c1nc2ncccc2[nH]1    No
15. O=c1oc2ccc(I)cc2c(=O)n1-c1ccc(I)cc1F    Yes
16. Nc1cccc(Nc2cc(S(=O)(=O)O)c(N)c3c2C(=O)c2ccccc2C3=O)c1    No
17. C#CCn1cc(C=C2C(=O)NC(=O)NC2=O)c2cc(Cl)ccc21    No
18. COc1cc(C2C(C#N)=C(N)OC3=C2C(=O)c2ccccc2C3=O)cc(OC)c1O (stereo unspecified)    No
19. COC(=O)c1ccc(NC(=O)CSc2nc3ccccc3c(=O)n2-c2ccccc2)cc1    No
20. COc1ccc(-c2cn[nH]c2-c2cc(OC)c(OC)c(OC)c2)cc1OCc1ccccc1    No
21. O=C(Nc1ccc(N2CCNCC2)cc1)c1[nH]ncc1Nc1cc(C2CC2)ncn1    No
22. O=C(NC1CCCCC1)C(c1cccs1)N(CCc1ccccc1)C(=O)c1ccco1 (stereo unspecified)    No
23. O=C(c1nc2ccccc2[nH]1)C1C(c2cccc([N+](=O)[O-])c2)C2CC3CCCCC3N2[C@@]12C(=O)Nc1cc(Cl)ccc12 (stereo partly specified)    No
24. COc1cc(/C=C2\CN(C)C/C(=C\c3cc(CN4CCOCC4)c(O)c(OC)c3)C2=O)cc(CN2CCOCC2)c1O    No
25. O=c1nc2sc3nc4ccccc4cc3cc-2s1    No
26. CN1C(=O)N(C)C2Nn3c(s/c(=C\c4ccc(Cl)cc4Cl)c3=O)=NC21 (stereo unspecified)    No

---

# System: NCI-H23 lung
# ASSAY SUMMARY: NCI-60 one-dose screen, 48 h (100 = growth as untreated, 0 = no growth, -100 = all killed)
# CONDITIONS USED: 10 µM unless noted
The panel holds about 83,000 compounds, 20% with a hit somewhere; the sample as a whole holds those more often.
QUANTITY: growth (%)

1) CCCCCCCCCCOC(=O)c1ccccc1C(=O)OCCCC    107
2) CN=c1ccc2nc3ccc(N)cc3sc-2c1    13.3
3) CCOC(=O)c1cc2c(n1Cc1ccccc1)-c1oncc1CCC2    88.3

---

# Test system: T-47D breast
# ASSAY SUMMARY: NCI-60 one-dose screen, 48 h (100 = growth as untreated, 0 = no growth, -100 = all killed)
# CONDITIONS USED: 10 µM unless noted
Compounds without any hit were thinned out: in the full panel of roughly 83,000, 20% have a hit. Activity calls are given as the source filed them. Rule for the calls: active = growth percent below 10; inactive = the rest.
Below is a list of entries, each paired with its recorded growth value.
QUANTITY: growth

1. CN1C(=O)N(C)C2Nn3c(s/c(=C4\C(=O)N(CCc5ccccc5)c5ccccc54)c3=O)=NC21 (stereo not drawn)    67.6% (inactive)
2. COc1ccc(CCN2C(=O)CCSC2=S)cc1    62% (inactive)
3. COc1cc2nc(NC3CCCC3)nc(NC3CCN(C(C)C)CC3)c2cc1OC    17.4% (inactive)

---

Below is a list of entries, each paired with its recorded growth value.
# System: OVCAR-3 ovarian
# ASSAY SUMMARY: NCI-60 one-dose screen, 48 h (100 = growth as untreated, 0 = no growth, -100 = all killed)
# CONDITIONS USED: 10 µM unless noted
The panel holds about 83,000 compounds, 20% with a hit somewhere; the sample as a whole holds those more often. Activity calls are given as the source filed them. Rule for the calls: active = growth percent below 10; inactive = the rest.
QUANTITY: growth

1. CC[C@]1(O)C[C@@H]2CN(CCc3c([nH]c4ccccc34)[C@@](C(=O)OC)(c3cc4c(cc3OC)N(C)[C@H]3[C@@](O)(C(=O)OC)[C@H](OC(C)=O)[C@]5(CC)C=CCN6CC[C@]43[C@@H]65)C2)C1    -4.09% (active)
2. CCOc1cccc(/C=N/NC(=O)C(=O)Nc2cccc(C(F)(F)F)c2)c1O    29.3% (inactive)
3. Cn1cc([C@@H]2Nc3ccc4[nH]ncc4c3[C@H]3[C@H]4CCC(C4)[C@H]32)c(C(F)(F)F)n1    34.7% (inactive)
4. O=C(Nc1ncc(Cc2cccc(C(F)(F)F)c2)s1)C1COc2ccccc2O1 (stereo not given)    90.6% (inactive)
5. COc1ccc(Cn2cc(Cn3c(=O)c(-c4nc5ccccc5[nH]4)cc4ccccc43)nn2)c(OC)c1OC    -32.5% (active)
6. O=NN(C(=O)NC1CCC(C(=O)O)CC1)C1CCC(C(=O)O)CC1 (stereo not given)    113% (inactive)
7. CCOC(=O)C1(C(=O)OCC)N=C(c2ccccc2)C=C1c1ccccc1    86.9% (inactive)
8. COc1nc2c(c(=O)n1C)N=C1c3ccccc3C(=O)C1C(c1ccccc1)N2 (stereo not given)    74.9% (inactive)
9. O=C(/C=C/c1ccc(C(F)(F)F)cc1)c1ccc(Nc2nc(NCCO)nc(Nc3ccc(Cl)cc3)n2)cc1    27.1% (inactive)
10. O=c1oc2ccc(F)cc2c(=O)n1-c1ccc(F)cc1F    4.14% (active)
11. COc1cccc(C2=NN3C(C2)c2ccccc2OC3c2ccc(/C=C3\SC(=O)NC3=O)cc2)c1 (stereo not given)    102% (inactive)
12. O=C(Nc1ccc(-c2nc3cc4ccccc4cc3[nH]2)cc1)c1cccc(Br)c1    25.9% (inactive)
13. CCCc1c(C)c2sc(=O)[nH]c2[nH]c1=O    113% (inactive)
14. Cc1ccc(CN2CCC(C(=O)Nc3ccc(-c4cc5ccccc5[nH]4)cc3)CC2)o1    49.4% (inactive)
15. CC(=O)SC1CC(=O)C=C2CCC3C4CCC(=O)OC4(C)CCC3C21C (stereo not given)    106% (inactive)
16. O=C(Nc1ccc(F)c(Cl)c1)Nc1ccc(Cl)c(Cl)c1    61.1% (inactive)
17. O=C(/C=C/c1ccccn1)c1ccc(OCc2nnc(-c3ccc(Cl)cc3)o2)cc1    18.6% (inactive)
18. CCCN1CCN(c2ccc3nc(-c4ccc5nc(-c6cc(OC)ccc6OC)[nH]c5c4)[nH]c3c2)CC1    122% (inactive)
19. CN1CCN(Cc2ccc(C(=O)Nc3cncc(C#Cc4cnc(N)c5ccccc45)c3)cc2C(F)(F)F)CC1    -74.1% (active)
20. O=C(c1ccccc1)N(C(=S)NCCc1ccc(Cl)cc1)c1ccc(Cl)cc1    27.7% (inactive)

---

# System: SW-620 colon
# ASSAY SUMMARY: NCI-60 one-dose screen, 48 h
# CONDITIONS USED: 10 µM unless noted
This is part of a sample that, as a whole, favours compounds with a hit. Of some 83,000 tested, about 20% had one in any assay. Activity calls are given as the source filed them. The calls were made as follows: active = growth percent below 10; inactive = the rest.
Labels: class 1 (active), class 0 (inactive)

1) CCN1C(=O)N(c2ccccc2)C2NN=c3s/c(=C4\C(=O)N(C(C)C)c5ccccc54)c(=O)n3C21 (stereo not given)    class 0
2) COc1cc2cc3c(=O)n4c(cc5cc(OC)ncc54)c(=O)n3c2cn1    class 0
3) Cc1ccc(NCCNCC(O)CO)c2c(=O)c3ccccc3sc12 (stereo not given)    class 1
4) O=C(COc1cc(O)c2c(=O)cc(-c3ccccc3)oc2c1)Nc1ccccc1C(F)(F)F    class 0
5) O=C(c1ccccc1)N(C(=S)NCCc1ccc(Cl)cc1)c1ccc(Cl)cc1    class 0
6) COc1ccc2occ(C3=C(c4c[nH]c5ccccc45)C(=O)NC3=O)c2c1    class 0
7) O=C(Nc1ccc(-c2nc3ccc(NC(=O)c4ccc(Cl)cc4)cc3[nH]2)cc1)c1ccc(Cl)cc1    class 0
8) Nc1nc2c(ncn2[C@@H]2O[C@H](CS)[C@@H](O)[C@H]2O)c(=O)[nH]1    class 0
9) O=C(Nc1ccc(Cl)cc1)N1CCN(c2ccc3nncn3n2)CC1    class 1
10) CCOC(=O)C(CC(=O)O)=C(C(=O)OCC)C(=O)OCC    class 0
11) COc1ccccc1N1C(=N)S/C(=C\c2ccc(OCc3ccccc3F)cc2)C1=O    class 0
12) COc1ccc(CCN2CCC(CN(C)Cc3cnn(-c4ccccc4)c3)CC2)cc1    class 0
13) COC(=O)C1=Nc2ccc(F)cc2/C1=C/c1sc(=S)[nH]c1O    class 0
14) O=C1c2cc(Cl)ccc2Oc2cc([N+](=O)[O-])ccc2N1c1ccc(F)cc1F    class 0
15) CC1=NCC2NC(=O)NC(C)=C12 (stereo not given)    class 0
16) O=C(Nc1ccc(N2CCNCC2)cn1)c1[nH]ncc1Nc1ncnc2sccc12    class 1
17) O=C(Nc1ccc(F)cc1F)c1cc(I)ccc1O    class 0
18) O=c1c2cc(F)ccc2sc2c(NCCCNCCO)nc3ccc(Cl)cc3c12    class 1
19) O=C(c1ccccc1)N(CCc1ccc(Cl)cc1)C(=S)N(C(=O)c1ccccc1)c1ccccc1    class 0
20) COc1cccc2c(=O)c3c(sc12)c(NCCCNCCO)nc1ccccc13    class 1
21) NCCNc1nc2ccc(F)cc2c2c(=O)c3cc(F)ccc3sc12    class 1
22) OCCNc1nc(Nc2ccc(C3=NN(c4cc(Cl)cc(Cl)c4)C(c4ccc(C(F)(F)F)cc4)C3)cc2)nc(N2CCOCC2)n1 (stereo not given)    class 0
23) O=c1oc2ccc(I)cc2c(=O)n1-c1ccc(Br)cc1F    class 1
24) O=C(NC(=S)Nc1cccc(NC(=S)NC(=O)c2ccccc2)c1)c1ccccc1    class 0
25) CC(C)C[C@H](C(=O)N[C@H](C(N)=O)C(C)C)N1CC=CCN(OCc2ccccc2)S1(=O)=O    class 0
